Entry source: the RNAGym collection of RNA variant scans (doi:10.1002/anie.201605470)

B1: Osa-1-4 twister ribozyme (parent)
chain: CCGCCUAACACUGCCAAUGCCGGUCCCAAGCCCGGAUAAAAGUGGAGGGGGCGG

# Variants of: B1
# Procedure text: self-cleavage, relative activity (ratio to wild type); higher = more cleavage; co-transcriptional
As shown below, each of these variants has a reported self-cleavage value.

{"columns": ["Primary sequence", "self-cleavage"],
 "data": [
  ["CCGCCUAACACUGCCAAUGCGGGUCCCAAGUCCGGAUAAAAGUGGAGGGGGCGG", 0.05],
  ["CCGCCUAACACUGCCAAUGCCGGUCCCAAGCCCGGAUAAAAGUGGAGGGCGCGC", 0.1],
  ["CCGCCUAGCACUGCCAAUGCCGGUCCCAAGCCCGGAUAAAAGUGGAGAGGGCGG", 0.06],
  ["CCGCCUAACACUGCUAAUGCCGGUCCCAAGACCGGAUAAAAGUGGAGGGGGCGG", 0.03],
  ["CCGCCUAACACUGCCAAUGCUGGUCCCAAGCCCGGAUGAAAGUGGAGGGGGCGG", 1.01],
  ["CCGCCUAACACUGCCACUCCCGGUCCCAAGCCCGGAUAAAAGUGGAGGGGGCGG", 0.04],
  ["CCGCCUAACACUGCCAAUGCCGGUCCCAAGCCCGGAUGAAAGUGGAGGUGGCGG", 0.13],
  ["CCGCCUAACACUGCCAAUGCCGGUGCCAAGCCGGGAUAAAAGUGGAGGGGGCGG", 0.04],
  ["CCGCCUAACAAUGCCAAUGCCGGUCCCAAGCCCGGAAAAAAGUGGAGGGGGCGG", 0.48],
  ["CCGCCUAACACUGCCAAUGCCGGGCCCAAGCCCGGAUAAAAGUGGAGGGGGCGG", 0.03],
  ["CCGCCUAUCACUGCCAAUGCCGGUCCCAAGCCCGGAGAAAAGUGGAGGGGGCGG", 0.54],
  ["CCGCCUAACAUUGCAAAUGCCGGUCCCAAGCCCGGAUAAAAGUGGAGGGGGCGG", 0.21],
  ["CCGCCUAACACUGCCAAUGCCGGUCCCAAGCCUGGAUAAAAGUGGAGGGGGAGG", 0.84],
  ["CCGCCUAAAACUGCCAAAGCCGGUCCCAAGCCCGGAUAAAAGUGGAGGGGGCGG", 0.47],
  ["CCGCCUAACACUGCCAAUGCUGGUCCCAAGCCCGGAUAAAAGUCGAGGGGGCGG", 0.99],
  ["CCGCCUAACACUGCCAAUGCUGGUCCCAAGCCCGGGUAAAAGUGGAGGGGGCGG", 1.02],
  ["CCGCCUAACACUGCCAAUGCCGGUCCCAACCCCGGAUAAAAGUGGAGGGGGAGG", 0.06],
  ["CCGCCUAACACUGCCAAUGGCGGUCGCAAGCCCGGAUAAAAGUGGAGGGGGCGG", 0.1],
  ["CCGCCUAACACUGCCAAUGCCGGUCCCAAGCUCGGAUAGAAGUGGAGGGGGCGG", 0.1],
  ["CCGCCUAACACUGCCAAUGCCGGUCCCAAGCCCGGAUAUAAGUGGAGGGGGCGU", 0.77],
  ["CCGCCUAACACUGCCAAUGCCGGUCCAAAGCCCAGAUAAAAGUGGAGGGGGCGG", 0.18],
  ["CCGCCUAACACUGCCAAUGCCGUUCCCAAGCCCGGAUAAAAGUGGAGGGGCCGG", 0.04],
  ["CCGCCUAACACUGCCAAUGCCGGUCCCAAGCCCGGCUACAAGUGGAGGGGGCGG", 0.15],
  ["CCGCCUAACACUGCCAAUGCCGGUCCCAAGCCCGGCAAAAAGUGGAGGGGGCGG", 0.53],
  ["CCGCCUAACACUGCCAACGCCGGUCACAAGCCCGGAUAAAAGUGGAGGGGGCGG", 0.06],
  ["CCGCCUAACACUGCCAAUGCGGGUCCCAAGACCGGAUAAAAGUGGAGGGGGCGG", 0.02],
  ["CCGCCUAACACUGCCAAUGCCGGUCUCAAGCCCGGAUAAAAGUGGACGGGGCGG", 0.07],
  ["CCGCCUAACACUGCCAAUGCCGGUCCCAAGCCCGGAUAAUCGUGGAGGGGGCGG", 0.87],
  ["CCGCCUAACACUGCCACUGCCGGUCCCUAGCCCGGAUAAAAGUGGAGGGGGCGG", 0.29],
  ["CCGCCUUACACUGCCAAUGCCGGUCCCAAGCCCGGAUAAAAAUGGAGGGGGCGG", 0.09],
  ["CCGCCUAACACUGCCACUGCCGGUCCCAAGCCCGGAUAAAAGUGGAGGGGGCGG", 0.76],
  ["CCGCCUAACACUGCCAAUGCCGGACCCAAGCCCGGAUAAAAGUGGAGGGGGCCG", 0.04],
  ["CCGCCUAACAAUGCCAAUGCCGGUGCCAAGCCCGGAUAAAAGUGGAGGGGGCGG", 0.05],
  ["CCGCCUAACACUGCCAAUGCCGGUCACAAGCCCGGAUAAAAAUGGAGGGGGCGG", 0.04],
  ["CCGCCUAAAACUGCCUAUGCCGGUCCCAAGCCCGGAUAAAAGUGGAGGGGGCGG", 0.42],
  ["CCGCCUAACACUGCCAAUGCCGGUCCCAUGCCCCGAUAAAAGUGGAGGGGGCGG", 0.05],
  ["CCGCCUAACACUGCCAAUGCCGGUCACAAGCCCGGAUAAAAGUGGACGGGGCGG", 0.02],
  ["CCGCCUAACACUGCCAAUGCCGGUCCCAAGCCCGGAAAAAAGUGGAGGGGUCGG", 0.15],
  ["CCGCCUAACACUGCCAAUGCCGGUCCCAAGCCCAGAUAAAAGUGGAGAGGGCGG", 0.08],
  ["CCGCCUAACACUGCCAAUGCCGGUCUCAAACCCGGAUAAAAGUGGAGGGGGCGG", 0.03],
  ["CCGCCUAACACUGCAAAUGCCGGUCCCAAGCCCGGAUAAAGGUGGAGGGGGCGG", 0.18],
  ["CCGCCUAACACUGCCAAUGCCGGUCCCAAGCCCGGAUAACAGUGCAGGGGGCGG", 0.03],
  ["CCGCCUAACACUGCCAAUCCCGGUCCCAAGCCCGGAAAAAAGUGGAGGGGGCGG", 0.46],
  ["CCGCCUAACACUGACAAUGCCGGUGCCAAGCCCGGAUAAAAGUGGAGGGGGCGG", 0.02],
  ["CCGCCUAACAGUGCCAAUGCCGGUCCCAAGCCUGGAUAAAAGUGGAGGGGGCGG", 0.06],
  ["CCGCCUAACACUGCCAAUGCCGGUCCCAUGCCCGGAUAAAAGGGGAGGGGGCGG", 0.08],
  ["CCGCCUAACACUGCCAAUGCGGGUCCCAAACCCGGAUAAAAGUGGAGGGGGCGG", 0.02],
  ["CCGCCUAACACUGCCAAUGUCGGUCCCAAGCGCGGAUAAAAGUGGAGGGGGCGG", 0.13],
  ["CCGCCUAACACUGCCAAUGCCGGUCCCAAGACCGGAUAAAAGAGGAGGGGGCGG", 0.03],
  ["CCGCCUAACACUGCCAAUGCCGGUCCCAAUUCCGGAUAAAAGUGGAGGGGGCGG", 0.03],
  ["CCGCCUAACACUGCCAAUGCCGGUCCCAAGCCCGGAUAACAGUGGAGGGGGAGG", 0.11],
  ["CCGCCUUACACUGGCAAUGCCGGUCCCAAGCCCGGAUAAAAGUGGAGGGGGCGG", 0.23],
  ["CCGCCUAACACUGCCAAUGCCGAUCACAAGCCCGGAUAAAAGUGGAGGGGGCGG", 0.04],
  ["CCGCCUAACACUGCCGAUGCGGGUCCCAAGCCCGGAUAAAAGUGGAGGGGGCGG", 0.12],
  ["CCGCCUAACACUGCCAAUGCCGGUACCAAGCCCGGAUAAAAUUGGAGGGGGCGG", 0.03],
  ["CCGCCUAACAAUGCCCAUGCCGGUCCCAAGCCCGGAUAAAAGUGGAGGGGGCGG", 0.58],
  ["CCGCCUAACACUGCCAAUACCGGUCCCAAGCCCGGAUAACAGUGGAGGGGGCGG", 0.07],
  ["CCGCCUAACACUGCCCAUGCCGGUCCCAAGCCCGGAUAAAAGUGGAGGGGGCUG", 0.25],
  ["CCGCCUAACACUGCCAAUGCCGGUUCCAAGCCCGGAUAAAAGUGGAGGAGGCGG", 0.77],
  ["CCGCCUAACACUGCCAAUGCCGUUCCCAAGCCAGGAUAAAAGUGGAGGGGGCGG", 0.04],
  ["CCGCCUAACACUGCAAAUGCCGGUCUCAAGCCCGGAUAAAAGUGGAGGGGGCGG", 0.12],
  ["CCGCCUAACACUGCCAAUGCCGGUCCCAAGUCCGAAUAAAAGUGGAGGGGGCGG", 0.87],
  ["CCGCCUAACACUGUCAAUGCCGGUCCCCAGCCCGGAUAAAAGUGGAGGGGGCGG", 0.46],
  ["CCGCCUAACUCUGCCAAAGCCGGUCCCAAGCCCGGAUAAAAGUGGAGGGGGCGG", 0.03],
  ["CCGCCUAAAACUGCCAAUGCCUGUCCCAAGCCCGGAUAAAAGUGGAGGGGGCGG", 0.12],
  ["CCGCCUAACCCUGCCAAUGCCGGUCCCAAGCCCGGAUAAAAGUGGAGGGUGCGG", 0.04],
  ["CCGCCUAACACUGCCAAUGCCGGUCCCAAGCCCGGAAAAAAGGGGAGGGGGCGG", 0.43],
  ["CCGCCUAACAGUGCCAAUGCCGGUCCCGAGCCCGGAUAAAAGUGGAGGGGGCGG", 0.06],
  ["CCGCCUACCACCGCCAAUGCCGGUCCCAAGCCCGGAUAAAAGUGGAGGGGGCGG", 0.07],
  ["CCGCCUAACACAGCCAUUGCCGGUCCCAAGCCCGGAUAAAAGUGGAGGGGGCGG", 0.94],
  ["CCGCCUAACACUGCCAAUGCAGGUCCCAAGCCCUGAUAAAAGUGGAGGGGGCGG", 1.05],
  ["CCGCCUAACACUGCCAAUGCCGGUCCCAAGCCCGGUUAAAAGUUGAGGGGGCGG", 0.96],
  ["CCGCCUAACACUCCCAAGGCCGGUCCCAAGCCCGGAUAAAAGUGGAGGGGGCGG", 0.05],
  ["CCGCCUAACACUGCCAAUGCCGGUCCCAAGCCCGGAUAAAAGUUGAGGGGUCGG", 0.19],
  ["CCGCCUAACACUACCAAUGCCGGUCCCAAGCCCGGAUAAAAGUGGAGGGGGCGC", 0.06],
  ["CCGCCUAACACUGCCAAUGCCGGUCCCAGGCCCGGAUAAAAGUGGAGGGAGCGG", 0.27],
  ["CCGCCUAACACUUCCAAUGCCGGUACCAAGCCCGGAUAAAAGUGGAGGGGGCGG", 0.02],
  ["CCGCCUAACGCUGCCAAUGCCGGUCCCGAGCCCGGAUAAAAGUGGAGGGGGCGG", 0.15],
  ["CCGCCUAACACUGCCAAUGCCGGUCCCAAGCCCGGAUAAAAGUGGAGCGGGAGG", 0.1],
  ["CCGCCUAACACUGCAGAUGCCGGUCCCAAGCCCGGAUAAAAGUGGAGGGGGCGG", 0.61],
  ["CCGCCUAACACUGCCAAUGCCGGUCCCAAGCCCGGAUAUAAGUGUAGGGGGCGG", 0.05],
  ["CCGCCUAAUACUGCCCAUGCCGGUCCCAAGCCCGGAUAAAAGUGGAGGGGGCGG", 0.77],
  ["CCGCCUAACACUGUCAAUGCCGGUCCCAAGCCCGGAUAAAAGUGGAGGGGGCGU", 0.47],
  ["CCGCCUAACGCUGCCAAUGCCGGUCCCAAGCCCGGAUAAAAGUGGAGGGGGCGC", 0.85],
  ["CCGCCUAACACUGCCAAUGCCGGUCCCCAGACCGGAUAAAAGUGGAGGGGGCGG", 0.04],
  ["CCGCCUAACACUGCCAAUGCCGGUCCCACGCCCGGAUAAAAGUGGAGGGGGCGA", 0.03],
  ["CCGCCUAACACUGCCAAUACCGGUCCCAAGCCCGCAUAAAAGUGGAGGGGGCGG", 0.68],
  ["CCGCCUAACAUUGCCAAUGCCGGUCCCAAGCCCGGAUAAAAGUCGAGGGGGCGG", 0.84],
  ["CCGCCUGACACUGCCAAUGCCGGUCCCAUGCCCGGAUAAAAGUGGAGGGGGCGG", 0.06],
  ["CCGCCUAACACUGCCAAUGCCGGUCCCAAGCCCGGAUAAACGUGGAGGGGACGG", 0.28],
  ["CCGCCUAACACUGCCAAAGCCGGUCCCCAGCCCGGAUAAAAGUGGAGGGGGCGG", 0.96]
]}
